# Test system: HOP-92 NSCLC
# ASSAY_TEXT: NCI-60 one-dose screen, 48 h
# CONDITION_SUMMARY: 10 µM unless noted
The panel holds about 83,000 compounds, 20% with a hit somewhere; the sample as a whole holds those more often. Activity calls are given as the source filed them. How the source made its calls: active means growth percent below 10; inactive means the rest.
Give your call using only these classes: 1 = active, -1 = inactive

Answered examples (4):
CCSc1sc(-c2ccc(C)cc2)nc1[P+](c1ccccc1)(c1ccccc1)c1ccccc1; 1
CN1CCN(c2ccc3nc(-c4[nH]ncc4Nc4ncnc5c4OCCCN5)[nH]c3c2)CC1; 1
O=C(N/N=C/c1ccccc1SSc1ccccc1/C=N/NC(=O)c1ccccc1)c1ccccc1; -1
COc1cc2c(cc1-c1c(C)noc1C)ncc1nc(C3CCC(F)(F)CC3)n([C@@H](C)COC(F)F)c12; -1

What did the test return for COc1ccc(O)c(-c2cc(-c3ccc(Cl)cc3)c(C#N)c(=O)[nH]2)c1 ?
-1
